ASSAY METRIC: melting point

// recorded melting point for CON(C(=O)c1cn(C)nc1C(F)F)C(C)c1cccc(I)c1 (centres unmarked) [Compound 1.014] : 136 to 138 °C

Per the records, this compound ( CON(Cc1cccc(I)c1)C(=O)c1cn(C)nc1C(F)F [Compound 1.097] ) has melting point equal to 114 to 116 °C

New cases:
Entry CON(C(=O)c1cn(C)nc1C(F)F)C(C)c1cccc(-c2ccc(Cl)c(Cl)c2)c1 (centres unmarked) [Compound 1.020] — recorded melting point = 162 to 164 °C

CON(C(=O)c1cn(C)nc1C(F)F)C(C)c1ccc(I)cc1 (centres unmarked) [Compound 1.003] has a reported melting point of 72 to 74 °C

Entry CON(C(=O)c1cn(C)nc1C(F)F)C(C)c1ccc(Cl)cc1Cl (centres unmarked) [Compound 1.023] ; melting point = 135 to 141 °C

Taken from patent US8357634B2.
